- Tested on: OVCAR-5 ovarian
- PROCEDURE TEXT: NCI-60 one-dose screen, 48 h (100 = growth as untreated, 0 = no growth, -100 = all killed)
- CONDITION DETAILS: 10 µM unless noted
The panel holds about 83,000 compounds, 20% with a hit somewhere; the sample as a whole holds those more often.
READOUT: growth (%)
Record the value in %, omitting the unit from your answer.

The examples below pair each entry with its known result.
- O=C(O)C1(Cc2cccc(Nc3nccs3)n2)CCC(Oc2cccc(Cl)c2F)CC1 (stereo unspecified): 80.1
- CCCC(=O)OCC1OC(n2cnc3c(=S)nc(N)[nH]c32)C(OC(=O)CCC)C1OC(=O)CCC (stereo unspecified): 38.4

// switching to the query compound
In: # query: growth of entry CCCCCC(=O)OCc1ccc(Cl)c(Cl)c1
Out: 108

====

- Tested on: RPMI-8226 leukemia
- PROCEDURE TEXT: NCI-60 one-dose screen, 48 h (100 = growth as untreated, 0 = no growth, -100 = all killed)
- CONDITION DETAILS: 10 µM unless noted
Compounds without any hit were thinned out: in the full panel of roughly 83,000, 20% have a hit.
The label depends only on growth: MET if it is at least 60%, NOT MET if it is smaller.

- Clc1ccc(Nc2nccc(Nc3ccc4[nH]ncc4c3)n2)cc1: NOT MET
- C=CC(=O)Nc1cc2c(Nc3ccc(F)c(Cl)c3)ncnc2cc1OCCCN1CCOCC1: NOT MET
- CN(C)C[C@@H]1CCn2cc(c3ccccc32)C2=C(C(=O)NC2=O)c2cn(c3ccccc23)CCO1: NOT MET
- COc1cc2cc(NCc3ccc(F)cc3)nc(C)c2cc1OC: NOT MET
- CC(C)(C)c1nc(-c2cccc(NS(=O)(=O)c3c(F)cccc3F)c2F)c(-c2ccnc(N)n2)s1: MET
- Cc1ccc(NC(=O)NC(=O)CSc2nc3ccccc3nc2C)cc1: NOT MET

In: Please indicate if the recorded growth for CCN1CCN(Cc2ccc(-c3cc4c(N[C@H](C)c5ccccc5)ncnc4[nH]3)cc2)CC1 meets or exceeds 60%.
Out: NOT MET

In: Also O=C(Cn1c(=O)ccn(CCCCCCCCOc2ccc(Br)cc2)c1=O)Nc1ccc(Oc2ccc(Cl)cc2)cc1 , if possible.
Out: NOT MET

In: Also COc1cc(Nc2ncc(F)c(Nc3ccc4c(n3)NC(=O)C(C)(C)O4)n2)cc(OC)c1OC , if possible.
Out: MET

In: Also Cc1cc(C(=O)Nc2cc(Oc3ccc4nc(NC(=O)C5CC5)cn4n3)ccc2C)n(C)n1 , if possible.
Out: NOT MET

In: Also CC(=O)Oc1ccccc1C(=O)N=C1[Se]CCN1C(=O)c1ccccc1OC(C)=O , if possible.
Out: NOT MET

====

- System: OVCAR-8 ovarian
- PROCEDURE TEXT: NCI-60 one-dose screen, 48 h (100 = growth as untreated, 0 = no growth, -100 = all killed)
- CONDITION DETAILS: 10 µM unless noted
- Experimental: Growth inhibition of the OVCAR-8 human tumor cell line is measured as a screen for anti-cancer activity. Cells are grown in 96 well plates and exposed to the test compound for 48 hours. Compounds are tested at a single concentration, which is 10^-5 M for most compounds. The reported endpoint is percent growth (GI% or GIPRCNT), where numbers from 0 - 100% represent growth inhibition, and numbers from -100% - 0 represent cell death. For example, a value of 40 represents 60% growth inhibition. […]
This is part of a sample that, as a whole, favours compounds with a hit. Of some 83,000 tested, about 20% had one in any assay. The source made the active and inactive calls. How the source made its calls: active means growth percent below 10; inactive means the rest.
Collected growth values appear next to each entry.

In: # query: growth of entry CC(=O)CC1CCCC1c1ccc2ccccc2c1 (configuration not stated)
Out: 100% (inactive)

In: Also CC(=O)C1=C(C)NC(SCc2nnc(-c3ccc(C)cc3)o2)=NC1c1ccc(F)cc1 (configuration not stated) , if possible.
Out: 97% (inactive)

In: Also CC(C)c1ccc(/C=N/Nc2nc3ccccc3s2)cc1 , if possible.
Out: 87.5% (inactive)

In: Also CS(=O)(=O)CCNCc1ccc(-c2ccc3ncnc(Nc4ccc(OCc5cccc(F)c5)c(Cl)c4)c3c2)o1 , if possible.
Out: -26.5% (active)

In: Also COc1ccc(F)c(F)c1C(=O)c1cnc(NC2CCN(S(C)(=O)=O)CC2)nc1N , if possible.
Out: 7.37% (active)

In: Also CCc1nc2cc(/C=C/C(=O)NO)ccc2c(=O)n1CCc1ccc(F)cc1 , if possible.
Out: 5.85% (active)

In: Also Clc1nc(Cl)c2ncn(CC#CCn3cnc4c(Cl)nc(Cl)nc43)c2n1 , if possible.
Out: -34.8% (active)
